tested on: Escherichia coli TOP10; test: shrunken log2 fold change of peptide-encoding DNA abundance (4.5 h post-induction vs induction); higher = less antimicrobial activity (less host growth inhibition); settings: time post-induction: 4.5 h; library: site-saturation at positions 5, 18, 19, 20
What shrunken log2 fold change was measured for each of the following?
Numbers only.

Record excerpt, results attached:
>>> reported_value("RRIRARPPRLPRPRPRPTGVPRP")
0.439
>>> reported_value("RRIRYRPPRLPRPRPRPRNVPRP")
-0.324
>>> reported_value("RRIRYRPPRLPRPRPRPMRVPRP")
0.135
>>> reported_value("RRIRRRPPRLPRPRPRPDAKPRP")
0.644
>>> reported_value("RRIRMRPPRLPRPRPRPQISPRP")
-0.28
>>> reported_value("RRIRARPPRLPRPRPRPNWMPRP")
0.0981
>>> reported_value("RRIRKRPPRLPRPRPRPHAPPRP")
0.485
>>> reported_value("RRIRIRPPRLPRPRPRPLNLPRP")
-0.597

Provide each entry's shrunken log2 fold change from the list below.
1. RRIRYRPPRLPRPRPRPHAMPRP
2. RRIRQRPPRLPRPRPRPFRAPRP
3. RRIRTRPPRLPRPRPRPPLYPRP
4. RRIRHRPPRLPRPRPRPCLIPRP
5. RRIRGRPPRLPRPRPRPILGPRP
6. RRIRQRPPRLPRPRPRPAITPRP
7. RRIRLRPPRLPRPRPRPLVRPRP

[-0.221, 0.0134, -0.12, -0.11, -0.0749, -0.114, -0.105]

###

system: Escherichia coli TOP10; assay: shrunken log2 fold change of peptide-encoding DNA abundance (4.5 h post-induction vs induction); higher = less antimicrobial activity (less host growth inhibition); conditions: time post-induction: 4.5 h; library: site-saturation at positions 5, 18, 19, 20
Classes by shrunken log2 fold change: c1 = under -0.1, c2 = from -0.1 up to 0.05, c3 = 0.05 and over

Please review the entries below; each comes with its answer.
>>> group("RRIRERPPRLPRPRPRPMHWPRP")
"c2"
>>> group("RRIRTRPPRLPRPRPRPFLFPRP")
"c1"
>>> group("RRIRGRPPRLPRPRPRPRGAPRP")
"c3"

Class? Entry: RRIRRRPPRLPRPRPRPPFHPRP c3

Lab note: which band did RRIRIRPPRLPRPRPRPSRKPRP land in? c1

Kindly identify the class of RRIRQRPPRLPRPRPRPRFSPRP . c2

Looking at RRIRCRPPRLPRPRPRPKRPPRP , which class would you pick? c3

###

test system: Escherichia coli TOP10; test: shrunken log2 fold change of peptide-encoding DNA abundance (4.5 h post-induction vs induction); higher = less antimicrobial activity (less host growth inhibition); settings: time post-induction: 4.5 h; library: site-saturation at positions 5, 18, 19, 20;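 note: peptides expressed intracellularly from a pBAD plasmid library in pooled LB shake-flask culture, induced with 0.3% L-arabinose, DNA abundance read by NGS, three biological replicates, DESeq2 with apeglm shrinkage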
PROPERTY_LABEL: shrunken log2 fold change
Give bare numbers.

The cases that follow already have their shrunken log2 fold change on record.
>>> reported_value("RRIRSRPPRLPRPRPRPSVWPRP")
0.0903
>>> reported_value("RRIRCRPPRLPRPRPRPWIAPRP")
-0.256
>>> reported_value("RRIRPRPPRLPRPRPRPLAEPRP")
0.322
>>> reported_value("RRIRPRPPRLPRPRPRPGYFPRP")
-0.0323
>>> reported_value("RRIRWRPPRLPRPRPRPGQLPRP")
-0.0402

# per-item lookup of shrunken log2 fold change; items listed below
1. RRIRKRPPRLPRPRPRPLYGPRP
2. RRIRMRPPRLPRPRPRPEHEPRP
3. RRIRLRPPRLPRPRPRPEEEPRP

[-0.289, 0.0191, -0.00112]
